Values from PubChem BioAssay (NCI)

Field: TGI. Provide a value for each of the compounds that follow.
tested on: COLO 205 colon; assay: NCI tumour cell line growth inhibition, 48 h

[in] Look at this compound and give its reported TGI. COc1nc(NC2OC(CO)C(O)C(O)C2O)c(N)c(=O)[nH]1 (stereo not drawn)
[out] > 100 µM

[in] Look at this compound and give its reported TGI. `C[C@]12CC[C@H]3[C@@H](CC[C@]4(O)C[C@@H](O[C@@H]5O[C@H](CO)[C@@H](O[C@@H]6OC[C@@H](O)[C@H](O)[C@H]6O)[C@H](O)[C@H]5O)CC[C@]34C=O)[C@@]1(O)CC[C@@H]2C1=CC(=O)OC1`
[out] 7.24 µM

[in] Look at this compound and give its reported TGI. `COc1ccc(Nc2cc(=O)[nH]c(=O)[nH]2)cc1`
[out] > 100 µM

[in] Look at this compound and give its reported TGI. `CC(C)C(/C=C/c1ccc(Cl)cc1)=N\NC(=O)N/N=C(/C=C/c1ccc(Cl)cc1)C(C)C`
[out] > 100 µM

[in] Look at this compound and give its reported TGI. CC(=O)OCC1OC(O[C@H]2C=C[C@@H](C(=O)OCc3ccccc3)n3c(=O)n(-c4ccccc4)c(=O)n32)C(OC(C)=O)C(OC(C)=O)C1OC(C)=O (stereo partly drawn)
[out] 8.75 µM

[in] Look at this compound and give its reported TGI. `c1ccc(/C(=N/Nc2ccccn2)c2cccnn2)cc1`
[out] > 100 µM

[in] Look at this compound and give its reported TGI. CCN(CC)CC(O)c1cc(-c2ccc(Cl)cc2)nc2c(C)c(Cl)ccc12 (stereo not drawn)
[out] 3.35 µM

[in] Look at this compound and give its reported TGI. `Cc1ccccc1-n1c(CCl)nc2ccc(Br)cc2c1=O`
[out] 26.4 µM

[in] Look at this compound and give its reported TGI. `COc1ccc(CNc2nc3cc(C(F)(F)F)ccc3nc2C(=O)O)cc1`
[out] 39.7 µM

[in] Look at this compound and give its reported TGI. `Cc1cc(C)c(/C=N/NS(=O)(=O)c2ccccc2)c(C)c1`
[out] > 100 µM

[in] Look at this compound and give its reported TGI. `COc1cc(C(=O)NN=C2c3ccccc3-c3ccccc32)cc(OC)c1OC`
[out] 32.1 µM

[in] Look at this compound and give its reported TGI. `C=CC(=O)N1CCC[C@@H](n2nc(-c3ccc(Oc4ccccc4)cc3)c3c(N)ncnc32)C1`
[out] > 10 µM

[in] Look at this compound and give its reported TGI. `Cc1cccc(-c2nc(-c3cnccn3)n(Cc3ccccc3)n2)c1`
[out] > 100 µM

[in] Look at this compound and give its reported TGI. `CN(C)CCCCNc1ccc(NCCCCN(C)C)c2c1C(=O)c1c(O)ccc(O)c1C2=O`
[out] 28.6 µM

[in] Look at this compound and give its reported TGI. O=C(NN1C(=O)CSC1c1c(Cl)cccc1Cl)C(O)c1ccccc1 (stereo not drawn)
[out] > 100 µM

[in] Look at this compound and give its reported TGI. `O=C(O)c1ccc(Nc2cnc3cc(C(F)(F)F)ccc3n2)cc1`
[out] > 100 µM

[in] Look at this compound and give its reported TGI. CCN(/N=C1\CC2C=CCN(C2)C(=O)Cc2c1[nH]c1ccccc21)S(=O)(=O)c1ccc(C)cc1 (stereo not drawn)
[out] > 100 µM

[in] Look at this compound and give its reported TGI. CCCC(C(=O)OC)C1N=C(NC#N)N(Cc2ccccc2)C1=O (stereo not drawn)
[out] > 100 µM

[in] Look at this compound and give its reported TGI. CC(N)C(C)c1ccccc1 (stereo not drawn)
[out] > 100 µM

[in] Look at this compound and give its reported TGI. `COc1ccc(/C=C\c2cc(OC)c(OC)c(OC)c2)c(NS(=O)(=O)c2ccc(F)cc2)c1O`
[out] 7.94 µM

[in] Look at this compound and give its reported TGI. `CC[C@@]1(O)C(=O)OCc2c1cc1n(c2=O)Cc2c-1nc1cc(F)c(C)c3c1c2[C@@H](NC(=O)CO)CC3`
[out] 4.16 µM

[in] Look at this compound and give its reported TGI. O=CC1OC(=O)c2cc(O)c(O)c(O)c2-c2c(cc(O)c(O)c2O)C(=O)OC1C1OC(=O)c2cc(O)c(O)c(O)c2-c2c(O)c(O)c3oc(=O)c4c(c(O)c(O)c5oc(=O)c2c3c54)-c2c(cc(O)c(O)c2O)C(=O)OCC1O (stereo not drawn)
[out] > 100 µM

[in] Look at this compound and give its reported TGI. `CCCCCCc1cc2cc(C(=O)Nc3cccc(F)c3)c(=N)oc2cc1O`
[out] 34.7 µM

[in] Look at this compound and give its reported TGI. COc1ccc([C@@H]2OC(=O)C3C2C(=O)O[C@H]3c2ccc(OC)cc2)cc1 (stereo partly drawn)
[out] > 100 µM

[in] Look at this compound and give its reported TGI. O=C(CC1(O)C(=O)Nc2ccccc21)c1ccccc1O (stereo not drawn)
[out] > 100 µM

[in] Look at this compound and give its reported TGI. [O-][N+]1=C2CCC/C(=N/O)C2(O)C2CCCCC21N1CCOCC1 (stereo not drawn)
[out] > 100 µM

[in] Look at this compound and give its reported TGI. `COC(=O)c1cccc(NC(=O)c2ccc(NC3=C(Cl)C(=O)N(Cc4ccccc4)C3=O)cc2)c1`
[out] > 100 µM

[in] Look at this compound and give its reported TGI. `O=C1c2ccccc2C(=O)N1NC1=NCCN1`
[out] > 100 µM

[in] Look at this compound and give its reported TGI. `CCN(CC)CCSc1c(C(C)=O)c(=O)n(-c2ccccc2)c(=S)n1-c1ccccc1`
[out] 3.92 µM

[in] Look at this compound and give its reported TGI. Clc1ccccc1C1SCc2nc3ccccc3n21 (stereo not drawn)
[out] > 100 µM

[in] Look at this compound and give its reported TGI. `Nc1ncnc2c1ccn2-c1cccc(NC(=O)c2ccc(N3CCOCC3)c(C(F)(F)F)c2)c1`
[out] 15.1 µM

[in] Look at this compound and give its reported TGI. O=c1/c(=C\c2ccc(Br)cc2)sc2n1C(c1ccc(Br)cc1)C1=C(N=2)c2ccc3ccccc3c2OCC1 (stereo not drawn)
[out] > 100 µM

[in] Look at this compound and give its reported TGI. `O=C(O)c1ccc(/C=N/N=C2c3ccccc3-c3ccccc32)cc1`
[out] > 100 µM

[in] Look at this compound and give its reported TGI. `COCCn1c2c([n+](Cc3cnccn3)c1C)C(=O)c1ccccc1C2=O`
[out] 0.0626 µM

[in] Look at this compound and give its reported TGI. `O=C1c2ccc3c4c(ccc(c24)C(=O)N1CCNCc1ccccc1)C(=O)N(CCNCc1ccccc1)C3=O`
[out] 3.01 µM

[in] Look at this compound and give its reported TGI. Cc1cc(C)c2c(c1)N(C)c1ncnc(-n3cnc4cc(C)ccc43)c1CC2C (stereo not drawn)
[out] 10.5 µM

[in] Look at this compound and give its reported TGI. Nc1ccc(C2SCC(=O)N2NS(=O)(=O)c2cccc(C(=O)O)c2)cc1 (stereo not drawn)
[out] > 100 µM

[in] Look at this compound and give its reported TGI. CCN(CC)C(=O)CC12CCCCC1=Nc1ccccc12 (stereo not drawn)
[out] > 100 µM

====

test system: SF-295 CNS; experiment: NCI tumour cell line growth inhibition, 48 h
Field: GI50. Provide a value for each of the compounds that follow.

[in] Notebook entry, SF-295 CNS assay: GI50 of `Nc1ncnc2c1ccn2-c1cccc(NC(=O)c2ccc(N3CCOCC3)c(C(F)(F)F)c2)c1` = ?
[out] 2440 nM

[in] Notebook entry, SF-295 CNS assay: GI50 of O=c1/c(=C\c2ccc(Br)cc2)sc2n1C(c1ccc(Br)cc1)C1=C(N=2)c2ccc3ccccc3c2OCC1 (stereo not drawn) = ?
[out] > 100000 nM

[in] Notebook entry, SF-295 CNS assay: GI50 of `COc1cc2c(cc1OCCCN1CCN(C(=S)SCCC(C#N)(c3ccccc3)c3ccccc3)CC1)N=C[C@@H]1CCCN1C2=O` = ?
[out] 1110 nM

====

test system: OVCAR-8 ovarian; experiment: NCI tumour cell line growth inhibition, 48 h; in the data active = GI50 below about 0.43 µM; inactive = the rest
Can you answer with just one of these options? active, inactive

[in] Identify the outcome logged in this assay for the compound shown: `COc1c(B(O)O)cccc1-c1nc2c(F)cc3n[nH]c(C)c3c2c2c1CCCC2`
[out] inactive

[in] Identify the outcome logged in this assay for the compound shown: `O=C1c2ccc3c4c(ccc(c24)C(=O)N1CCNCc1ccccc1)C(=O)N(CCNCc1ccccc1)C3=O`
[out] inactive

[in] Identify the outcome logged in this assay for the compound shown: `CC(=O)Nc1cc2c3c(cccc3c1)-c1ccccc1-2`
[out] inactive

[in] Identify the outcome logged in this assay for the compound shown: `COc1cc(N(CCCl)CCCl)ccc1/C=N\NC(=O)c1cccnc1`
[out] inactive

[in] Identify the outcome logged in this assay for the compound shown: `C[C@]12CC[C@@H]3c4ccc(OC(=O)N(CCCl)CCCl)cc4CC[C@H]3[C@@H]1CC[C@@H]2OP(=O)(O)O`
[out] inactive

[in] Identify the outcome logged in this assay for the compound shown: `COc1ccc(/C=C\c2cc(OC)c(OC)c(OC)c2)c(NS(=O)(=O)c2ccc(F)cc2)c1O`
[out] active

[in] Identify the outcome logged in this assay for the compound shown: CO/C(=C1/NC(=O)C(Cc2ccc(O)c(Br)c2)N(C)C(=O)C(C)NC(=O)CCC/C=C(\C)CCC(C)OC1=O)c1ccccc1 (stereo not given)
[out] active

[in] Identify the outcome logged in this assay for the compound shown: `O=C(CN1CCN(C(=O)c2ccco2)CC1)Nc1ccc(Cl)cc1C(=O)c1ccccc1Cl`
[out] inactive

[in] Identify the outcome logged in this assay for the compound shown: `CC[C@@]1(O)C(=O)OCc2c1cc1n(c2=O)Cc2c-1nc1cc(F)c(C)c3c1c2[C@@H](NC(=O)CO)CC3`
[out] active

[in] Identify the outcome logged in this assay for the compound shown: `COc1cc(C(=O)NN=C2c3ccccc3-c3ccccc32)cc(OC)c1OC`
[out] inactive

[in] Identify the outcome logged in this assay for the compound shown: `COC(=O)c1cccc(NC(=O)c2ccc(NC3=C(Cl)C(=O)N(Cc4ccccc4)C3=O)cc2)c1`
[out] inactive

[in] Identify the outcome logged in this assay for the compound shown: Cc1cc(C)c2c(c1)N(C)c1ncnc(-n3cnc4cc(C)ccc43)c1CC2C (stereo not given)
[out] inactive

[in] Identify the outcome logged in this assay for the compound shown: `Fc1ccc(Nc2nc3nonc3nc2Nc2ccc(I)cc2)cc1`
[out] active

[in] Identify the outcome logged in this assay for the compound shown: `Nc1ncnc2c1ccn2-c1cccc(NC(=O)c2ccc(N3CCOCC3)c(C(F)(F)F)c2)c1`
[out] inactive

[in] Identify the outcome logged in this assay for the compound shown: `COc1cc(C)[nH]c(=O)c1CNC(=O)c1c(C)n([C@H](C)C2CCN(CC(F)(F)F)CC2)c2ccccc12`
[out] inactive
